# System: SNU-398
# PROTOCOL_DETAILS: Proliferation of hepatocellular carcinoma cell line SNU-398 (CellTiter Glo-2.0)
# Type: cell-based
# DETAILS: Homo sapiens, 144 h; SNU-398, cultured for 6 days, 10% FBS
# Description: As the human hepatocellular carcinoma cell line, SNU-398, Li-7, Hep3B2.1-7, and HuH-7 were used. […] The number of cells in each well after the culture was calculated by measuring the intracellular ATP level with the emission intensity using CellTiter Glo-2.0 (Promega Corporation, catalog number: G9243). […]
PARAMETER: IC50 (nM)
Dear colleague, please return just the value in nM, with no unit written.

// query Need IC50, item CNC(=O)n1ccc2cc(Oc3ccnc(NC(=O)c4ccc(C5CCN(CCO)CC5)cc4)c3)c(OCCOC)cc21
// result 26
